tested on: HepG2; assay: Cytotoxicity against human HepG2 cells assessed as reduction in cell viability after 72 hrs by MTT assay; assay type: functional, cell-based; conditions: HepG2, 72 h
QUANTITY_MEASURED: AC50 (µM)
Use µM as the unit, but write only the number.

Consider the following illustrative entries.
CC(O)(COc1ccc(C(F)(F)F)cc1)C(=O)Nc1ccc(C#N)c(C(F)(F)F)c1 (centres undefined); 23.9
C[C@](O)(CSc1cccc(C(F)(F)F)c1)C(=O)Nc1ccc(C#N)c(C(F)(F)F)c1; 34.6
CC(O)(CSc1cccc(C(F)(F)F)c1)C(=O)Nc1ccc([N+](=O)[O-])c(C(F)(F)F)c1 (centres undefined); 26.1

Quote AC50 reported for CC(O)(CSc1cccc(C(F)(F)F)c1)C(=O)Nc1ccc(C#N)c(C(F)(F)F)c1 (centres undefined) please.
36.6
